# ASSAYED_SYSTEM: Ephrin type-B receptor 1 (Homo sapiens)
# Sequence (P54762 whole entry): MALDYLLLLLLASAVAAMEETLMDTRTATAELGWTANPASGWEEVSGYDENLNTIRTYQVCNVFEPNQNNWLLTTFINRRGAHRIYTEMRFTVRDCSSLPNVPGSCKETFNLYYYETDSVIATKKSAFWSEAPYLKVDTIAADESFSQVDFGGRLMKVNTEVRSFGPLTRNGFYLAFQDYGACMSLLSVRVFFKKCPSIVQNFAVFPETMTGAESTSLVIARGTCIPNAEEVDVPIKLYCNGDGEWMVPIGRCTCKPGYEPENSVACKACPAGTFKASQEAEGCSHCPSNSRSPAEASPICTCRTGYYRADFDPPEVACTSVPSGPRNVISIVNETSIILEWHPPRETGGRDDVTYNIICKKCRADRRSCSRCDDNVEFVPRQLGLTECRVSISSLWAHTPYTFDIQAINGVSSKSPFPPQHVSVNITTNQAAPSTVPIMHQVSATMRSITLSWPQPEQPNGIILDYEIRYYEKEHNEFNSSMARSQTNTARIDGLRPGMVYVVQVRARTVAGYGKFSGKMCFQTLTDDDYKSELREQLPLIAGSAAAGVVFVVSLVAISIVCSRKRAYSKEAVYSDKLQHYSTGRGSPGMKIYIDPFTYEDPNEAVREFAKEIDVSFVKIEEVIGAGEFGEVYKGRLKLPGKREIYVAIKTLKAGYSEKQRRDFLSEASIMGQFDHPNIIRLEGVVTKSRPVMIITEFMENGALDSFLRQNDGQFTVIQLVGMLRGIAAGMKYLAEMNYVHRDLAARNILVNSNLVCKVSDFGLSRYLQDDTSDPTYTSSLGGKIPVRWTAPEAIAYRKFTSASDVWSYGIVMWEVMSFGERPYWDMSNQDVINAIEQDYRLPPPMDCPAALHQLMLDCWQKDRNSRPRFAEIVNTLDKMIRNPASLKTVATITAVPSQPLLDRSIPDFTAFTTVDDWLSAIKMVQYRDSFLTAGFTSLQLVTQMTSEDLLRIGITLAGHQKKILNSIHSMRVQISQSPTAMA
MEASUREMENT_KIND: IC50 (nM)
# value in nM; strip the unit string

Ephrin type-B receptor 1 (Homo sapiens) assay, compound "Cc1cccc(C)c1/C=C/n1cnc2c(Nc3ccc(P(C)(C)=O)cc3)ncnc21" , recorded IC50 = 6
